Every entry's value here was drawn from patent US20110098304A1.

- SYSTEM: human PARD-1 (Poly (ADP-Ribose) Polymerase-1) (Homo sapiens, UniProt P09874)
- Sequence (P09874 whole entry): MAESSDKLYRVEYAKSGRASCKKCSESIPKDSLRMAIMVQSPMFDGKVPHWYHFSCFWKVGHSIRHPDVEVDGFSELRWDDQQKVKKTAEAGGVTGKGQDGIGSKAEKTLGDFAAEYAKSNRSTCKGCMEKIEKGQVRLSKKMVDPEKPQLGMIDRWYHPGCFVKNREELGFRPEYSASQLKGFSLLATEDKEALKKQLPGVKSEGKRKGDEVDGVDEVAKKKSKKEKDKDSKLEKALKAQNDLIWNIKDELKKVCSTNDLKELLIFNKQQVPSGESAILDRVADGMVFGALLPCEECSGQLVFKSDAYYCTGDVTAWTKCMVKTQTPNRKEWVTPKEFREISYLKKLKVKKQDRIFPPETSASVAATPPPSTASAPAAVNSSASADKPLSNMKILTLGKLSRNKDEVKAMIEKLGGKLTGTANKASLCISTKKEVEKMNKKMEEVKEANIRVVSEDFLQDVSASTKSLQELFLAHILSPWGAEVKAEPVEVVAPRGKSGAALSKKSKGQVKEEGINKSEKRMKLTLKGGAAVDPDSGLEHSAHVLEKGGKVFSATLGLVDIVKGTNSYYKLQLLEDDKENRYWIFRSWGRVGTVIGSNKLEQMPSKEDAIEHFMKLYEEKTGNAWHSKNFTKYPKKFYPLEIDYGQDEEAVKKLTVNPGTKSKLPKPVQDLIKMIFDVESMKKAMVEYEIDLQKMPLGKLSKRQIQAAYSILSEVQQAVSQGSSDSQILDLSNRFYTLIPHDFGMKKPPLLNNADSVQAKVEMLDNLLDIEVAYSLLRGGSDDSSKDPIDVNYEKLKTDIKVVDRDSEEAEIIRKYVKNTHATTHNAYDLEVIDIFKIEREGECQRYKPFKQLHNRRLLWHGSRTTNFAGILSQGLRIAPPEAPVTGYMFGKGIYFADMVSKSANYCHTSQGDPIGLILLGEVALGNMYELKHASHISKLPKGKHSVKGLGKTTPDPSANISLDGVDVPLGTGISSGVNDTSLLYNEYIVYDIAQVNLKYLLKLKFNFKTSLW
Listed next: entries and their corresponding IC50.

[
  {
    "TEST SMILES": "Nc1cc(-c2n[nH]c(=O)c3ccccc23)ccc1N1CCN(CCCO)CC1",
    "IC50": "1 to 100 nM"
  },
  {
    "TEST SMILES": "Nc1cc(-c2n[nH]c(=O)c3ccccc23)ccc1N1CCN(C2CCCC2)CC1",
    "IC50": "1 to 100 nM"
  },
  {
    "TEST SMILES": "CC(C)N1CCN(c2ccc(-c3n[nH]c(=O)c4ccccc34)cc2N)CC1",
    "IC50": "1 to 100 nM"
  },
  {
    "TEST SMILES": "CC(C)C(=O)Nc1cc(-c2n[nH]c(=O)c3ccccc23)ccc1N1CCN(C)CC1",
    "IC50": "1000 to 5000 nM"
  },
  {
    "TEST SMILES": "CN1CCN(c2ccc(-c3n[nH]c(=O)c4ccccc34)cc2NC(=O)NC2CCCCC2)CC1",
    "IC50": "100 to 1000 nM"
  }
]

---

- SYSTEM: human PARD-1 (Poly (ADP-Ribose) Polymerase-1) (Homo sapiens)
MEASURED ENDPOINT: IC50

[
  {
    "TEST SMILES": "CC(C)(C)OC(=O)CN1CCN(c2ccc(-c3n[nH]c(=O)c4ccccc34)cc2N)CC1",
    "MEASURED ENDPOINT": "IC50",
    "MEASURED RESULT": "100 to 1000 nM"
  },
  {
    "TEST SMILES": "COCCN1CCN(c2ccc(-c3n[nH]c(=O)c4ccccc34)cc2N)CC1",
    "MEASURED ENDPOINT": "IC50",
    "MEASURED RESULT": "100 to 1000 nM"
  },
  {
    "TEST SMILES": "CC(=O)Nc1cc(-c2n[nH]c(=O)c3ccccc23)ccc1N1CCN(C(C)(C)C)CC1",
    "MEASURED ENDPOINT": "IC50",
    "MEASURED RESULT": "1000 to 5000 nM"
  },
  {
    "TEST SMILES": "COC(=O)C(=O)Nc1cc(-c2n[nH]c(=O)c3ccccc23)ccc1N1CCN(C)CC1",
    "MEASURED ENDPOINT": "IC50",
    "MEASURED RESULT": "100 to 1000 nM"
  },
  {
    "TEST SMILES": "CCN1CCN(c2ccc(-c3n[nH]c(=O)c4ccccc34)cc2NC(=O)C(C)(C)C)CC1",
    "MEASURED ENDPOINT": "IC50",
    "MEASURED RESULT": "> 5000 nM"
  },
  {
    "TEST SMILES": "Nc1cc(-c2n[nH]c(=O)c3ccccc23)ccc1N1CCN(CC2CCCCC2)CC1",
    "MEASURED ENDPOINT": "IC50",
    "MEASURED RESULT": "1 to 100 nM"
  },
  {
    "TEST SMILES": "Nc1cc(-c2n[nH]c(=O)c3ccccc23)ccc1N1CCN(CCO)CC1",
    "MEASURED ENDPOINT": "IC50",
    "MEASURED RESULT": "1 to 100 nM"
  }
]
